# experimental.target: TRPML1 (Homo sapiens, UniProt Q9GZU1)
# Construct: expressed in transfected cells
# Sequence (Q9GZU1 whole entry): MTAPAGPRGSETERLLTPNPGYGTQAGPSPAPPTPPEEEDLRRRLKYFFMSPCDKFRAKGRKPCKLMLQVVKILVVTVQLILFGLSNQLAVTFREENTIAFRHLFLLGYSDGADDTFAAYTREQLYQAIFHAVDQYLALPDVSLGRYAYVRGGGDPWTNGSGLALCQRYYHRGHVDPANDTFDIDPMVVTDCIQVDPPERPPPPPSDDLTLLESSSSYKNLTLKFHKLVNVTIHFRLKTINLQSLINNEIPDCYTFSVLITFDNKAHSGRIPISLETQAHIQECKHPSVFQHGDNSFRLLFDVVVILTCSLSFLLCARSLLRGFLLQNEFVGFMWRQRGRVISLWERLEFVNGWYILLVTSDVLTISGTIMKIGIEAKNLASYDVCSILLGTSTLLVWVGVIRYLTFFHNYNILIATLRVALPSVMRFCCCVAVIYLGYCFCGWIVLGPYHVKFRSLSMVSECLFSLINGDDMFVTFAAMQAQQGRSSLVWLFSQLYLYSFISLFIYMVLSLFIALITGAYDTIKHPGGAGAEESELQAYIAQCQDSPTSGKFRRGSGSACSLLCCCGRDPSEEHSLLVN
# test.protocol: TRPML1 automated patch-clamp (QPatch 16X)
# Assay type: cell-based
# setup.conditions: 30 μM compound; HEK T-REx/GcaMP6f/TRPML1 cells; current with compound/current in vehicle; extracellular pH 4.6
readout: Qpatch Assay TRPML1 agonism Current fold increase Mean ± SEM (n)

>  <compound>
COC(=O)N1CCN(c2ccccc2NS(=O)(=O)c2ccc(S(=O)(=O)N(C)C)cc2)CC1

>  <data.value>
472.5 ± 267.9 (3)

$$$$

Qu. Consider the molecule shown here: `CN(C)S(=O)(=O)c1ccc(S(=O)(=O)Nc2ccccc2C2CCN(C(=O)OC(C)(C)C)CC2)cc1` What is its recorded Qpatch Assay TRPML1 agonism Current fold increase Mean ± SEM (n)?
Ans. 166 ± 75.7 (3)

Qu. Item `Cc1ccc(S(=O)(=O)Nc2ccccc2N2CCN(C(=O)OC(C)(C)C)CC2)cc1` has what recorded Qpatch Assay TRPML1 agonism Current fold increase Mean ± SEM (n)?
Ans. 140.3 ± 36.8 (4)

Qu. Which Qpatch Assay TRPML1 agonism Current fold increase Mean ± SEM (n) reading was recorded for the molecule `CN(C)S(=O)(=O)c1ccc(S(=O)(=O)Nc2ccccc2N2CCN(C(=O)OC(C)(C)C)CC2)cc1` ?
Ans. 244 ± 27.6 (4)

Qu. Give its Qpatch Assay TRPML1 agonism Current fold increase Mean ± SEM (n) value. Item: `CN(C)S(=O)(=O)c1ccc(S(=O)(=O)Nc2ccccc2N2CCCCCC2)cc1`
Ans. 260 ± 202 (2)

Qu. Requested field: Qpatch Assay TRPML1 agonism Current fold increase Mean ± SEM (n). Item: `CN(C)S(=O)(=O)c1ccc(S(=O)(=O)Nc2ccccc2N2CCN(C(=O)c3ccccc3)CC2)cc1`
Ans. 11.3

Qu. Fill blank: measured Qpatch Assay TRPML1 agonism Current fold increase Mean ± SEM (n) of the molecule `CN(C)S(=O)(=O)c1ccc(S(=O)(=O)Nc2ccccc2N2CCC(Oc3ccccn3)CC2)cc1` is ____.
Ans. 603 ± 155 (3)

###

# experimental.target: TRPML1 (Homo sapiens, UniProt Q9GZU1)
# Construct: expressed in transfected cells
# test.protocol: TRPML1 automated patch-clamp (QPatch 16X)
# Assay type: cell-based
# setup.conditions: 3.0 μM compound; HEK T-REx/GcaMP6f/TRPML1 cells; current with compound/current in vehicle; extracellular pH 4.6
readout: Qpatch Assay TRPML1 agonism Current fold increase Mean ± SEM (n)

Qu. Lab note: need Qpatch Assay TRPML1 agonism Current fold increase Mean ± SEM (n) for `Cc1ccc(S(=O)(=O)Nc2ccccc2N2CCN(C(=O)OC(C)(C)C)CC2)cc1` on TRPML1 (Homo sapiens, UniProt Q9GZU1), anyone have it?
Ans. 125.0 ± 31.0 (4)

Qu. Report Qpatch Assay TRPML1 agonism Current fold increase Mean ± SEM (n) for `COc1ccc(S(=O)(=O)Nc2ccccc2N2CCC(C(=O)OC(C)(C)C)CC2)cc1` tested on TRPML1 (Homo sapiens, UniProt Q9GZU1).
Ans. 21.7 ± 7.9 (3)

###

# experimental.target: TRPML1 (Homo sapiens, UniProt Q9GZU1)
# test.protocol: Cellular TRPML1 assay (FLIPR TETRA, GCaMP6f calcium read-out)
# setup.conditions: HEK T-REx/GCaMP6f/TRPML1 cells; Ca2+ response over 300 s, normalized to ML-SA1 50 μM; Ca2+ free or Optimem condition not given; read-out: Ec50 (Activity of TRPML1 agonists)
readout: pEC50
# log scale: pEC50 equals minus log10 of the concentration in mol/L

Solved cases below.
>  <compound>
CN(C)S(=O)(=O)c1ccc(CC(=O)Nc2ccccc2N2CCCC2)cc1 [Example 7]

>  <data.value>
4.07

$$$$
>  <compound>
CN(C)S(=O)(=O)c1ccc(S(=O)(=O)Nc2ccccc2N2CCCC(c3ccccc3)C2)cc1 (stereo not shown) [Example 35]

>  <data.value>
5.11

$$$$
>  <compound>
CN(C)S(=O)(=O)c1ccc(S(=O)(=O)Nc2ccccc2N2CCN(C(=O)c3cccs3)CC2)cc1 [Example 79]

>  <data.value>
5.06

$$$$

Qu. Fill in the blank: the reported pEC50 of CN(C)S(=O)(=O)c1ccc(S(=O)(=O)NC2CCCCC2N2CCC(Oc3ccccc3)CC2)cc1 (single isomer, unassigned) [Example 63] is ____.
Ans. 5.77

Qu. Suppose we examine the compound Cc1ccc(S(=O)(=O)Nc2ccccc2N2CCN(C(=O)OC(C)(C)C)CC2)c(C)c1 [Example 50] ; what pEC50 value has been reported?
Ans. 5.66

Qu. Entry CCc1ccc(S(=O)(=O)N(C)c2ccccc2N2CC3CCC2C3)s1 (stereo not shown) [Example 21] : reported pEC50 = ?
Ans. 4.25

###

# experimental.target: TRPML1 (Homo sapiens)
# Construct: expressed in transfected cells
# test.protocol: TRPML1 automated patch-clamp (QPatch 16X)
# Assay type: cell-based
# setup.conditions: 0.3 μM compound; HEK T-REx/GcaMP6f/TRPML1 cells; current with compound/current in vehicle; extracellular pH 4.6
# key: entry, value: Qpatch Assay TRPML1 agonism Current fold increase Mean ± SEM (n)

Guide cases for Qpatch Assay TRPML1 agonism Current fold increase Mean ± SEM (n), answers given:
>  <compound>
CN(C)S(=O)(=O)c1ccc(S(=O)(=O)Nc2ccccc2N2CCN(C(=O)OC(C)(C)C)CC2)cc1

>  <data.value>
13.5 ± 4.8 (4)

$$$$
>  <compound>
CN(C)S(=O)(=O)c1ccc(S(=O)(=O)Nc2ccccc2C2CCN(C(=O)OC(C)(C)C)CC2)cc1

>  <data.value>
0.68 ± 0.34 (3)

$$$$
>  <compound>
CCOC(=O)N1CCN(c2ccccc2NS(=O)(=O)c2ccc(S(=O)(=O)N(C)C)cc2)CC1

>  <data.value>
0.5 ± 0.3 (3)

$$$$
>  <compound>
COc1ccc(S(=O)(=O)Nc2ccccc2N2CCN(C(=O)OC(C)(C)C)CC2)cc1

>  <data.value>
8.6 ± 1.3 (2)

$$$$
>  <compound>
CN(C)S(=O)(=O)c1ccc(S(=O)(=O)Nc2ccccc2N2CCC(OCc3ccccc3)CC2)cc1

>  <data.value>
3.5 ± 1.8 (3)

$$$$

Attention now turns to another entry.
Qu. Find Qpatch Assay TRPML1 agonism Current fold increase Mean ± SEM (n) (TRPML1 (Homo sapiens)) for the entry `COC(=O)N1CCN(c2ccccc2NS(=O)(=O)c2ccc(S(=O)(=O)N(C)C)cc2)CC1`
Ans. 1.3 ± 1.0 (3)

###

# experimental.target: TRPML1 (Homo sapiens)
# test.protocol: Cellular TRPML1 assay (FLIPR TETRA, GCaMP6f calcium read-out)
# setup.conditions: HEK T-REx/GCaMP6f/TRPML1 cells; Ca2+ response over 300 s, normalized to ML-SA1 50 μM; Ca2+ free or Optimem condition not given; read-out: Ec50 (Activity of TRPML1 agonists)
readout: pEC50
Conceptually, pEC50 converts a concentration in mol/L into minus its log10.

# example entries with known answers
>  <compound>
CCCOC1CCN(c2ccccc2NS(=O)(=O)c2ccc(C)cc2C)CC1 [Example 66]

>  <pEC50>
4.66

$$$$
>  <compound>
CN(C)S(=O)(=O)c1ccc(S(=O)(=O)Nc2ccccc2N2CCCC2)cc1 [Example 32]

>  <pEC50>
4.72

$$$$

Next:
Qu. Which value of pEC50 has been reported for CCc1ccc(S(=O)(=O)Nc2ccccc2N2CCC(C(=O)OC(C)(C)C)CC2)cc1 [Example 19] in the records?
Ans. 5.68

###

# experimental.target: TRPML1 (Homo sapiens)
# test.protocol: Cellular TRPML1 assay (FLIPR TETRA, GCaMP6f calcium read-out)
# setup.conditions: HEK T-REx/GCaMP6f/TRPML1 cells; Ca2+ response over 300 s, normalized to ML-SA1 50 μM; Ca2+ free or Optimem condition not given; read-out: Ec50 (Activity of TRPML1 agonists)
# Description: Buffers and reagents • PBS (D-PBS without calcium and magnesium; EuroClone) • Trypsin (Trypsin 0.05%, EDTA 0.02% in PBS; EuroClone) • DMSO (Sigma) • Ca^2+ free Tyrode's buffer: in-house solution (130 mM NaCl, 5 mM KCl, 1 mM MgCl2, 5 mM NaHCO3, 20 mM HEPES in water at pH 7.4; sterile filtered). • Opti-MEM (Gibco) • Agonist: ML-SA1 (Sigma); stock: 60 mM in DMSO, stored at −20° C. • Blocker: ML-SI3 (in house synthesis); stock: 20 mM in DMSO, stored at −20° C. […]
Strictly below 4 µM in EC50: 1.0. Otherwise: 0.0.

Take a look at these entries with their results.
>  <compound>
Cc1nc(C)c(S(=O)(=O)Nc2ccccc2N2CCN(C(=O)OC(C)(C)C)CC2)s1 [Example 56]

>  <class.label>
1.0

$$$$
>  <compound>
COC1CCN(c2ccccc2NS(=O)(=O)c2ccc(S(=O)(=O)N(C)C)cc2)CC1 [Example 26]

>  <class.label>
0.0

$$$$
>  <compound>
CN(C)S(=O)(=O)c1ccc(S(=O)(=O)Nc2ccccc2N2CCC(F)CC2)cc1 [Example 44]

>  <class.label>
1.0

$$$$

Qu. Record COc1ccc(S(=O)(=O)Nc2ccccc2N2CCC(C(=O)OC(C)(C)C)CC2)cc1 [Example 91] : is its EC50 strictly below 4 µM?
Ans. 1.0
